- target.under.test: T1, Cdc25, P04821
- T1 sequence (P04821 50-136, looked up): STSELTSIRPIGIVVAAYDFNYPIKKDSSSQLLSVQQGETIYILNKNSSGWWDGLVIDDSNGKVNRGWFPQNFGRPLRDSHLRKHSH
- protocol.description: SPOT array
- settings: median of control spots 969
Overview of recorded SPOT intensity for various binders

{"binder": "PPPPPPPPPPPLPQS", "SPOT intensity": 0}
{"binder": "FPPKRKPLLRPQRSD", "SPOT intensity": 27}
{"binder": "RSVKRPRRAPRPVVS", "SPOT intensity": 20}
{"binder": "SKIRPTPRKPSRMAT", "SPOT intensity": 35}
{"binder": "PLRRTVMSLPGNHDI", "SPOT intensity": 16}
{"binder": "QRKSLRRPTLSKPAV", "SPOT intensity": 7}
